Kindly state pKi for each of the entries shown.
Biological target: Sigma non-opioid intracellular receptor 1 (Cavia porcellus)
Sequence (Q60492 whole entry): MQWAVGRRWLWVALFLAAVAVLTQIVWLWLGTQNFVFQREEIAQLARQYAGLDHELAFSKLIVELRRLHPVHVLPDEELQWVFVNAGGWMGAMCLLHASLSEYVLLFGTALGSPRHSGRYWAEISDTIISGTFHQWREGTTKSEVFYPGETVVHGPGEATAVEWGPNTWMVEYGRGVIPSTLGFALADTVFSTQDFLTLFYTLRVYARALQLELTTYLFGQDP
Experiment: Displacement of [3H]-(+)-pentazocine from guinea pig brain membrane sigma 1 receptor assessed as inhibition constant measured after 120 mins by scintillation counting method
Keep it numeric: pKi is minus log10 of the concentration in mol/L.

Q: Enter pKi (test system Sigma non-opioid intracellular receptor 1 (Cavia porcellus)) for C[C@@H]1CC[C@@H]2[C@@H](C1)OC(C)(C)O[C@]2(C)CN1CCC(Cc2ccccc2)CC1
A: 6.94

Q: Enter pKi (test system Sigma non-opioid intracellular receptor 1 (Cavia porcellus)) for C[C@@H]1CC[C@@H]2[C@@H](C1)O[C@H]1CN(CCCCc3ccccc3)C[C@]2(C)O1
A: 5.68

Q: Enter pKi (test system Sigma non-opioid intracellular receptor 1 (Cavia porcellus)) for C[C@@H]1CC[C@@H]2[C@H](C1)OCO[C@]2(C)CN1CCC(Cc2ccccc2)CC1
A: 8.46

Q: Enter pKi (test system Sigma non-opioid intracellular receptor 1 (Cavia porcellus)) for C[C@@H]1CC[C@@H]2[C@H](C1)OCO[C@@]2(C)CNCCCCc1ccccc1
A: 8.07

Q: Enter pKi (test system Sigma non-opioid intracellular receptor 1 (Cavia porcellus)) for C[C@@H]1CC[C@@H]2[C@H](C1)OC1CN(CCCCc3ccccc3)C[C@]2(C)O1 (single isomer, unassigned)
A: 6.14
